FYI, the data here is from ChEMBL document CHEMBL4052651.

Molecular target: Human immunodeficiency virus type 1 reverse transcriptase (Human immunodeficiency virus 1, UniProt Q72547, G190A)
Assay: Inhibition of HIV-1 reverse transcriptase G190A mutant assessed as reduction in dTTP incorporation using poly(rA)/oligo(dT)16 as template/primer after 40 mins by PicoGreen dye based spectrofluorometric analysis
pIC50: −log10 of the molar value.
Measured pIC50, listed per entry for reference.

| testSmiles | readoutRelation | pIC50 |
| --- | --- | --- |
| O=c1[nH]c2ccc(Cl)cc2n1S(=O)(=O)CCc1cccc(Cl)c1 | = | 3.59 |
| O=c1[nH]c2ccc(Cl)cc2n1S(=O)(=O)Cc1ccccc1Cl | = | 3.62 |
| O=c1[nH]c2ccc(Cl)cc2n1S(=O)(=O)Cc1ccccc1 | = | 3.60 |
| O=c1[nH]c2ccc(Cl)cc2n1S(=O)(=O)CCc1ccccc1Cl | = | 3.55 |
| O=c1[nH]c2ccc(Cl)cc2n1S(=O)(=O)Cc1ccc(Cl)cc1 | < | 3.47 |
| Cc1ccccc1CCS(=O)(=O)n1c(=O)[nH]c2ccc(Cl)cc21 | = | 4.27 |

----------
Experiment: Cytotoxicity against human MT4 cells assessed as reduction in cell viability after 5 days by MTT assay
Format: cell-based
Measured CC50 at 120 h, listed per entry for reference.

| testSmiles | resultUnit | readoutRelation | CC50 at 120 h |
| --- | --- | --- | --- |
| O=c1[nH]c2ccc(Cl)cc2n1S(=O)(=O)Cc1ccccc1 | µM | = | 155 |
| Cc1cccc(CS(=O)(=O)n2c(=O)[nH]c3ccc(Cl)cc32)c1 | µM | = | 110 |
| Cc1ccc(CS(=O)(=O)n2c(=O)[nH]c3ccc(Cl)cc32)cc1 | µM | = | 93 |
| O=c1[nH]c2ccc(Cl)cc2n1S(=O)(=O)CCc1ccccc1 | µM | = | 30 |
| Cc1ccccc1CS(=O)(=O)n1c(=O)[nH]c2ccc(Cl)cc21 | µM | = | 238 |
| O=c1[nH]c2ccc(Cl)cc2n1S(=O)(=O)CCc1ccccc1Cl | µM | = | 100 |
| O=c1[nH]c2ccc(Cl)cc2n1S(=O)(=O)Cc1ccccc1Cl | µM | = | 52 |
| O=c1[nH]c2ccc(Cl)cc2n1S(=O)(=O)Cc1cccc(Cl)c1 | µM | = | 152 |
| Cc1ccc(CCS(=O)(=O)n2c(=O)[nH]c3ccc(Cl)cc32)cc1 | µM | = | 161 |
| O=C1Nc2ccc(Cl)cc2[C@@](C#CC2CC2)(C(F)(F)F)O1 | µM | > | 6.33 |
| O=c1[nH]c2ccc(Cl)cc2n1S(=O)(=O)Cc1ccc(Cl)cc1 | µM | = | 77 |

----------
Molecular target: Human immunodeficiency virus type 1 reverse transcriptase (Human immunodeficiency virus 1, UniProt Q72547, Y181C)
Assay: Inhibition of HIV-1 reverse transcriptase Y181C mutant assessed as reduction in dTTP incorporation using poly(rA)/oligo(dT)16 as template/primer after 40 mins by PicoGreen dye based spectrofluorometric analysis
pIC50: −log10 of the molar value.
Measured pIC50, listed per entry for reference.
readoutName: pIC50

| testSmiles | readoutRelation | observedValue |
| --- | --- | --- |
| O=c1[nH]c2ccc(Cl)cc2n1S(=O)(=O)Cc1cccc(Cl)c1 | < | 3.47 |
| O=c1[nH]c2ccc(Cl)cc2n1S(=O)(=O)CCc1ccc(Cl)cc1 | = | 3.97 |
| O=c1[nH]c2ccc(Cl)cc2n1S(=O)(=O)Cc1ccccc1 | ≤ | 3.56 |
| Cc1ccc(CCS(=O)(=O)n2c(=O)[nH]c3ccc(Cl)cc32)cc1 | = | 3.75 |
| O=c1[nH]c2ccc(Cl)cc2n1S(=O)(=O)CCc1ccccc1Cl | = | 3.75 |
| Cc1cccc(CCS(=O)(=O)n2c(=O)[nH]c3ccc(Cl)cc32)c1 | = | 4.10 |
| Cc1cccc(CS(=O)(=O)n2c(=O)[nH]c3ccc(Cl)cc32)c1 | = | 4.01 |
| Cc1ccc(CS(=O)(=O)n2c(=O)[nH]c3ccc(Cl)cc32)cc1 | = | 3.74 |
| Cc1ccccc1CCS(=O)(=O)n1c(=O)[nH]c2ccc(Cl)cc21 | = | 4.49 |
| O=c1[nH]c2ccc(Cl)cc2n1S(=O)(=O)Cc1ccccc1Cl | < | 3.47 |
| Cc1ccccc1CS(=O)(=O)n1c(=O)[nH]c2ccc(Cl)cc21 | < | 3.45 |
| O=c1[nH]c2ccc(Cl)cc2n1S(=O)(=O)CCc1cccc(Cl)c1 | = | 4.13 |
| O=c1[nH]c2ccc(Cl)cc2n1S(=O)(=O)Cc1ccc(Cl)cc1 | < | 3.47 |
| O=c1[nH]c2ccc(Cl)cc2n1S(=O)(=O)CCc1ccccc1 | < | 3.45 |
